TARGET DESC: furin, P09958;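 further: purified furin at 1:10 enzyme:substrate in 50 mM HEPES pH 7.5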
Sequence (P09958 whole entry): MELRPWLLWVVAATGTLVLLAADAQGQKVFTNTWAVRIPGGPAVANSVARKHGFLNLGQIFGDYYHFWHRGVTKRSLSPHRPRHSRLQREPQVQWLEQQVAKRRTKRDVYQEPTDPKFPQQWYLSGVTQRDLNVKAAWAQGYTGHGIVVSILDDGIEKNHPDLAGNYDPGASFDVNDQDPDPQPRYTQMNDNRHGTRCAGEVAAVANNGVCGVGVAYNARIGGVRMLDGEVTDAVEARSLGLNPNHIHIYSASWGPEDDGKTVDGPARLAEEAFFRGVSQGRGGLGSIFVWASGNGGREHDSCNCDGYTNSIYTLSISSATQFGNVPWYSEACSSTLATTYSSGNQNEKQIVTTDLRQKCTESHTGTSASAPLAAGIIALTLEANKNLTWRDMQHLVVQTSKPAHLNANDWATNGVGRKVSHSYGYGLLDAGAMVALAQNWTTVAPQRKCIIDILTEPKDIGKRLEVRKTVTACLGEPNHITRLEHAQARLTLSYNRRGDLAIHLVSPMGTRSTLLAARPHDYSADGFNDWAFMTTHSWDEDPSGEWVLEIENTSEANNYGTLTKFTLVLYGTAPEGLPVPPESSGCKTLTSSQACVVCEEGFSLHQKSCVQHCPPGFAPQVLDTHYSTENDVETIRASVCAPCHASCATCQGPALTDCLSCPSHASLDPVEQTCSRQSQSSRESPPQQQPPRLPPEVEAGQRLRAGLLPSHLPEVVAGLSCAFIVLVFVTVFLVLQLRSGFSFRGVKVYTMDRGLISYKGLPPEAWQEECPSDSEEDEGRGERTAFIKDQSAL
MEASUREMENT PROTOCOL: furin cleavage Z-score vs untreated control; higher = more cleavage, active = 3.5 or more, inactive = 1 or less, 8 variable residues between constant flanks
CONDITION DETAILS: 15 min
Some of the results follow. The true hit rate is not given.
Recorded furin cleavage Z-score for the following sequences
Just the number, please, no unit after it.

INSERT INTO results (record_sequence, experimental_result) VALUES
  ('CAPPRRLRRSAGNASASA [FS-841]', 4.08),
  ('CAAWRHRARSAGNASASA [HC1620]', 1.9),
  ('CARSGAPTYSAGNASASA [HC421]', -0.13);

From here, focus on the item given below.
-- ask Please report the recorded furin cleavage Z-score for CARRRRELDPAGNASASA [FS-2076] .
-- reply 10.7
